Data credit: the RNAGym collection of RNA variant scans (doi:10.7554/elife.80360)

B1: HDV Ribozyme (parent)
chain: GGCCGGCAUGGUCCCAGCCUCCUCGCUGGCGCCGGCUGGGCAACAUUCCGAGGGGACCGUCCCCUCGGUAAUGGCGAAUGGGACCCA

variants of: B1; assay: self-cleavage, relative activity (ratio to wild type); higher = more cleavage; co-transcriptional
parameter-measured: self-cleavage
Please give only the number in your answer, with no unit.

# query: self-cleavage of entry C24A G59C 0.8

# query: self-cleavage of entry U27A G28U 0.158

# query: self-cleavage of entry C19G C86G 0.104

# query: self-cleavage of entry C26G C62U 1.09

# query: self-cleavage of entry U65C G80C 0.249

# query: self-cleavage of entry G6U G50A 0.372

# query: self-cleavage of entry C24A A83U 0.415

# query: self-cleavage of entry A71G G82A 0.538

# query: self-cleavage of entry G50C G74A 0.471

# query: self-cleavage of entry C33U G53C 0.727

# query: self-cleavage of entry G35U C58G 0.323

# query: self-cleavage of entry G1C G68U 0.17

# query: self-cleavage of entry A8U C19A 0

# query: self-cleavage of entry G5U A77U 0.158

# query: self-cleavage of entry C24G G54A 0

# query: self-cleavage of entry C18A C85G 0.0475

# query: self-cleavage of entry U46C G52C 0.72

# query: self-cleavage of entry G25A G53A 0.245

# query: self-cleavage of entry U12G A16C 0.831

# query: self-cleavage of entry C61U C66U 0.736

# query: self-cleavage of entry U23A C24A 0.623

# query: self-cleavage of entry G10U U60C 0.767

# query: self-cleavage of entry G50U G73C 0.268

# query: self-cleavage of entry G28A G38C 0.0978

# query: self-cleavage of entry A56U C84G 0.697

# query: self-cleavage of entry C21U A51U 0.308

# query: self-cleavage of entry G35A C48G 0.539

# query: self-cleavage of entry A70G G80U 0.177

# query: self-cleavage of entry G40A G55C 1.01

# query: self-cleavage of entry C48A A78C 0.169

# query: self-cleavage of entry A42G G59A 0.831

# query: self-cleavage of entry C44G U72C 0.198

# query: self-cleavage of entry C19G U47G 0

# query: self-cleavage of entry A8C C32U 0.538

# query: self-cleavage of entry G11A G54A 0.371

# query: self-cleavage of entry C18G G31A 0.0811

# query: self-cleavage of entry U9C C63G 0.831

# query: self-cleavage of entry A71G G73U 0.291

# query: self-cleavage of entry U60G G82A 0.6

# query: self-cleavage of entry G52C U65C 1.18

# query: self-cleavage of entry G5C C61U 0

# query: self-cleavage of entry C22U G73U 0.157

# query: self-cleavage of entry G5C G52C 0.095

# query: self-cleavage of entry A8G A83U 0.246

# query: self-cleavage of entry G28U C48G 0.161

# query: self-cleavage of entry G2A C63A 0.198
